Catalogue of IC60, neutralizing activity (hMPV infection of LLC-MK2 cells; GraphPad Prism 6) values
# Experimental Target: F protein of human metapneumovirus strain JPS05-21 (type B2), on infectious virus (human metapneumovirus, strain JPS05-21 …)
# Test Description: cell-based or functional assay
Observation Type: IC60, neutralizing activity (hMPV infection of LLC-MK2 cells; GraphPad Prism 6) (µg/mL)

Binder | Value Units | Quantitative Readout
EV046150 (antibody, human IgG1, kappa, V domains shown) VH: RVQLVQSGAEVKKPGSSVRVSCKASGGTFSNYSISWVRQVPGQGLEWMGRIIPILPLSSYPQQFQGRVAITADKSSTTAYMELSSLRIEDTAIYYCARDALRPEGGYYYYYFDVWGTGTTVTVSS VL: EIELTQSPGTLSLSPGERATLSCRANQIIGDTSLAWYQQKPGQAPRLLIFGASSRATGIPDRFSGSGFGSDFTLTITSLEPEDFAVYYCQQYGSSPTFGQGTKVEIKR | µg/mL | 0.229
EV046130 (antibody, human IgG1, lambda, V domains shown) VH: QVQLVESGGGVAQPGRSLRLSCAASGFTLSNYGMHWVRQAPGKGLEWVAVIWYDGRNKYYADSVKGRFTISRDDFKNTLDLQMNSLRAEDTAVYYCARDQHAGITMIEDWGQGTLVTVSS VL: QSALTQPPSASGSPGQSVTISCTGTSSDVGYFKYVSWYQQHPGKAPKLLIYEVSKRPSGVPDRFSGSRSGNTASLTVSGLQADDEADYYCGSYAGNNNIIFGGGTKLTVLG | µg/mL | 0.132
EV046124 (antibody, human IgG1, lambda, V domains shown) VH: QVQLVQSGTELKKPGASVKVSCKASGYTFTDYSMHWLRQAPGESLEWMGWVNGGPLDTKYSPTFQDRVSFSRDVFATTAYMDLSSLGPEDTAVYYCARGWGITAYRGDAFDLWGQGTMVIVSS VL: SFVLTQPPSVSVAPGKSARITCGASNIESKSVHWYQQKPGQAPVVVVYDDDDRPSGIPERFSGSNSGNTATLIINRVEVGDEADYYCQVWDSTSDMYVFGAGTKVTVLG | µg/mL | 0.305
EV046141 (antibody, human IgG1, lambda, V domains shown) VH: QVQLVQSGAEVKKPGASVKVSCKASGYTFADYYIHWLRQAPGQGLEWLGRINPSNSRTTYPQKFQGRVTVTRDTSTSTVYMELSSLRSADTAVYYCARDGLRMGYYYMDVWGKGTTVTVSS VL: QSVLTQPPSVSGAPGQRVTISCTGSSSNIGAGYDVHWYQQIPGTAPKLLIFGNYNRPSGVPDRFSASKSGTSASLAITGLQAEDEAHYYCQSYDTTLDGAVFGGGTKLTVLG | µg/mL | 0.571
EV046143 (antibody, human IgG1, kappa, V domains shown) VH: QVQLVQSGAEVQKPGSSVKVSCKTSGDTFNNYALSWVRQAPGQGPEWMGRIIPLVEMANYAQKFQGRVTITADKSTTTIYMELSSLRSEDTAMYYCARDGYQGGFPYFFDSWGQGTLVTVSS VL: EVVLTQSPGTLSLSPGERATLSCRASQSVSNYLAWYQQKPGQAPRLLISAASSRATGIPDRFGGSGSGADFTLTISRLEPEDFAVYYCQQYGFSPGTFGQGTKVEIRR | µg/mL | 0.363

Recorded values, source patent US20150322137A1.
